Test system: ATP;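 note: ATP exposure 15 min at 22 °C before imaging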
assay_name: switch fluorescence ratio, 500 uM ATP over buffer (Cy3 cluster intensity, sum of 5 cycles each) (fold (ratio)); higher = stronger signal-on switching upon ATP binding; sequences stand for … in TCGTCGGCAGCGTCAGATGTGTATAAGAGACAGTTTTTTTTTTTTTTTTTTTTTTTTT…TC
details: aptamer strand: ATP DNA aptamer (quencher-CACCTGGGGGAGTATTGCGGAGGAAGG + anchor), 100 nM annealed; ATP concentration: 500 uM
quantity_measured: switch fluorescence ratio

sequence_entry=CAAGGACAGC assay_target=ATP recorded_value=1.05
sequence_entry=TAAGGCAC assay_target=ATP recorded_value=1.04
sequence_entry=GCTCGCACAG assay_target=ATP recorded_value=1.32
sequence_entry=CTGGTGATTT assay_target=ATP recorded_value=1.05
sequence_entry=CTGAGGGCTG assay_target=ATP recorded_value=1.03
sequence_entry=TGCGAGAAGG assay_target=ATP recorded_value=0.999
sequence_entry=AAGGGGCCGA assay_target=ATP recorded_value=0.994
sequence_entry=CCATTTTGCC assay_target=ATP recorded_value=0.988

Requested read-out: switch fluorescence ratio. Entry: TGTATGATGT
1.03

Then what about the sequence GAAGGCACTA ?
1.03
